B1: TPR 5TU (parent)
chain: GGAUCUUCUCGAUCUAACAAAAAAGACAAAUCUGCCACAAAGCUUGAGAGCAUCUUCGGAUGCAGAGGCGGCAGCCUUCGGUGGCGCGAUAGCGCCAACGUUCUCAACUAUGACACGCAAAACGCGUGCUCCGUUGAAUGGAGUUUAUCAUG

variants of: B1; assay: polymerase ribozyme fitness, log enrichment relative to wild type (log ratio); higher = more active; in vitro selection for triplet polymerase activity
Fewer inactive variants are shown than the library holds.
Please go through the items and note down their polymerase ribozyme fitness (log ratio).

Name the recorded polymerase ribozyme fitness (log ratio) of the item A30G G50U U55G U82A in your answer.
≤ -4.2

Name the recorded polymerase ribozyme fitness (log ratio) of the item A30C A52G A106C U146C in your answer.
≤ -4.2

Name the recorded polymerase ribozyme fitness (log ratio) of the item A26G C27G C87U U148A in your answer.
≤ -4.2

Name the recorded polymerase ribozyme fitness (log ratio) of the item A29C C51U G83C C95U A137G G143C in your answer.
≤ -4.2

Name the recorded polymerase ribozyme fitness (log ratio) of the item A28C C57U G84A C96U G124U in your answer.
≤ -4.2

Name the recorded polymerase ribozyme fitness (log ratio) of the item A21C G50C G74A C87G U109G in your answer.
≤ -4.2

Name the recorded polymerase ribozyme fitness (log ratio) of the item G25C A39U U44C A91G C95U in your answer.
≤ -4.2

Name the recorded polymerase ribozyme fitness (log ratio) of the item C18U G50U C96G U146C in your answer.
-0.747

Name the recorded polymerase ribozyme fitness (log ratio) of the item A49C U55G A60U G65A G74C U77A in your answer.
≤ -4.2

Name the recorded polymerase ribozyme fitness (log ratio) of the item C93A C95A U104A G141C in your answer.
≤ -4.2

Name the recorded polymerase ribozyme fitness (log ratio) of the item C27A A60U G133A U135C A150U in your answer.
≤ -4.2

Name the recorded polymerase ribozyme fitness (log ratio) of the item C5U A12C A40C U61A C95U in your answer.
-2.18

Name the recorded polymerase ribozyme fitness (log ratio) of the item A26U U31C A39U U90C in your answer.
≤ -4.2

Name the recorded polymerase ribozyme fitness (log ratio) of the item A20G C93U in your answer.
-2.59

Name the recorded polymerase ribozyme fitness (log ratio) of the item G42A G86A in your answer.
-3.97

Name the recorded polymerase ribozyme fitness (log ratio) of the item A24U A60G C79G C96G U109C in your answer.
≤ -4.2

Name the recorded polymerase ribozyme fitness (log ratio) of the item U13G A29U C38G G70U G117U A120U C149U in your answer.
≤ -4.2

Name the recorded polymerase ribozyme fitness (log ratio) of the item A3C A121U in your answer.
0.339

Name the recorded polymerase ribozyme fitness (log ratio) of the item C5U G141C in your answer.
-0.459

Name the recorded polymerase ribozyme fitness (log ratio) of the item U78A G81A C93G A97U U151C in your answer.
≤ -4.2

Name the recorded polymerase ribozyme fitness (log ratio) of the item C5A U9C C10G A26U U90G A137G A142U in your answer.
≤ -4.2

Name the recorded polymerase ribozyme fitness (log ratio) of the item C54U U82G in your answer.
0.0533

Name the recorded polymerase ribozyme fitness (log ratio) of the item U102G G152U in your answer.
≤ -4.2

Name the recorded polymerase ribozyme fitness (log ratio) of the item C57G C69G U101G C118U in your answer.
-2.81

Name the recorded polymerase ribozyme fitness (log ratio) of the item A47U C54U U56A G84C C99A C108U C114U G126U in your answer.
≤ -4.2

Name the recorded polymerase ribozyme fitness (log ratio) of the item C35U U56G U134A in your answer.
-2.9

Name the recorded polymerase ribozyme fitness (log ratio) of the item C5A C27U U33G C79A in your answer.
≤ -4.2

Cited source for all entries: the RNAGym collection of RNA variant scans (doi:10.1073/pnas.2313332121)
